Reported protein stability index values for a set of variants
B1: MNAT1 (parent)
chain: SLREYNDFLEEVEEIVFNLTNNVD

variants of: B1; assay: protein stability index of a GFP-peptide fusion (GPS, HEK-293T) (PSI 1-6); higher = more stable; conditions: c terminus: a fixed tail appended;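 also: lentivirally expressed fusions sorted by FACS into six bins by GFP to DsRed ratio, PSI derived from sequencing read proportions per bin multiplied by bin number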
measured_attribute: protein stability index

• R3N = 2.18
• V16S = 4.58
• E14H = 2.19
• N21S = 1.68
• D24E = 2.47
• V12I = 2.13
• D7E = 1.91
• I15F = 2.23
• S1D = 2.62
• V12A = 3.22
• R3C = 1.77
• F17H = 3.15
• N6T = 2.27
• D7N = 2.49
• F17T = 3.16
• S1E = 2.03
• N22Y = 1.38
• F17E = 3.34
• D7P = 3
• L19F = 2.24
• E14C = 2.24
• F8A = 3.06
• D7G = 1.75
• N21E = 2.51
• V16D = 4.87
• V23S = 3.05
• E4Q = 2.27
• E14M = 2.22
• E11D = 2.51
• T20E = 2.51
• E11N = 1.68
• E11T = 1.97
• V23W = 1.57
• R3V = 1.61
• F17L = 2.19
• E13K = 2.69
• L2W = 1.79
• E13T = 1.58
• E10Y = 2.15
• E14Q = 2.46
• V23L = 1.64
• D24G = 2.61
• V23N = 2.35
• D7R = 1.63
• T20R = 2.46
• E14G = 2.34
